Reference source: paper PMC7826789

Test system: PIK3CB
Settings: Compound Concentration (nM):1000;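 also: KINOMEscan scanMAX binding as percent activity remaining versus control; lower means stronger binding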
Listed here are compounds together with their documented Percent Control.
REPORTED METRIC: Percent Control (%)

1. Cl.O=S1CCN(Cc2ccc(-c3ccc4ncnc(Nc5ccc(OCc6ccccc6)c(F)c5)c4c3)o2)CC1 [GW576924A]: 96
2. COc1cc(/C=N/Nc2ncnc3[nH]ncc23)ccc1O [GW578748X]: 54
3. CN(C)c1cc2c(Nc3ccc4c(cnn4Cc4ccccc4)c3)ncnc2cn1 [GW282974X]: 89
4. Cl.O=C(Nc1ccc(Oc2ccc3[nH]c(NC(=O)c4ccccc4)nc3c2)cc1)Nc1cc(C(F)(F)F)ccc1F [GW709042A]: 100
5. COc1cccc(-n2ncc3c(N/N=C/c4ccncc4)ncnc32)c1 [GW784752X]: 94
6. COc1ccccc1-c1cc(/C=C2\C(=O)Nc3ncc(Br)cc32)cc(Br)c1O [GW442130X]: 80
7. NS(=O)(=O)c1ccc(N/N=C2\C(=O)Nc3ccc(Cl)cc32)cc1 [GW280670X]: 100
8. Cl.c1ccc(Cc2nc3ccc(Nc4ncnc5ccccc45)cc3[nH]2)cc1 [GR269666A]: 100
9. CC1=C(C(=O)Nc2ccc3[nH]ncc3c2)C(c2ccc(Cl)c(Cl)c2)CC(=O)N1 (stereo not drawn) [GSK299115A]: 75

====

The compounds listed here are annotated with their Percent Control.
Tested on: ARK5
Construct: gene NUAK1
Details: Compound Concentration (nM):1000
REPORTED METRIC: Percent Control (%)

1. CCS(=O)(=O)c1ccc(OC)c(Nc2ncc(-c3cccc(OC)c3)o2)c1 [GW580509X]: 100
2. NS(=O)(=O)c1ccc(N/N=C2\C(=O)Nc3ccc(-c4cnco4)cc32)cc1: 100
3. CN(C)CCNC(=O)Nc1ccc(N(C)c2ccnc(Nc3ccc(CS(C)(=O)=O)cc3)n2)cc1.Cl [GW830900A]: 48
4. COc1ccccc1-c1cc(/C=C2\C(=O)Nc3ncc(Br)cc32)cc(Br)c1O [GW442130X]: 100
5. C[C@@H](Oc1cc(-n2cnc3ccc(OC4CCN(C)CC4)cc32)sc1C(N)=O)c1ccccc1Cl [GSK579289A]: 19
6. COc1ccc2cc(-c3c(-c4ccncc4)nc(-c4ccc(S(C)(=O)=O)cc4C)n3C)ccc2c1: 100
7. COc1cc(/C=N/Nc2ncnc3[nH]ncc23)ccc1O [GW578748X]: 100
8. COc1cc(C=NNc2ncnc3c2cnn3-c2ccccc2)ccc1O [GW513184X]: 84

====

Percent Control overview
Test system: HCK
Conditions: Compound Concentration (nM):1000
REPORTED METRIC: Percent Control (%)

1. NS(=O)(=O)c1ccc(Nc2ncc(-c3ccccc3)o2)cc1 [GW572399X]: 100
2. COc1cc(/C=N/Nc2ncnc3[nH]ncc23)ccc1O [GW578748X]: 64
3. CCc1ccc(Oc2nccc(-c3c(-c4ccc(F)cc4)ncn3C3CCNCC3)n2)cc1 [SB-242719]: 99
4. COc1cc(C=NNc2ncnc3c2cnn3-c2ccccc2)ccc1O [GW513184X]: 78

====

Consider the following molecules and their measured Percent Control readings.
Tested on: HIPK3
Conditions: Compound Concentration (nM):1000
REPORTED METRIC: Percent Control (%)

1. C/C(Nc1ccc(S(N)(=O)=O)cc1)=C1/C(=O)Nc2ccccc21 [GW335962X]: 97
2. CN(C)CCNC(=O)Nc1ccc(N(C)c2ccnc(Nc3ccc(CS(C)(=O)=O)cc3)n2)cc1.Cl [GW830900A]: 81
3. COc1cc(/C=N/Nc2ncnc3[nH]ncc23)ccc1O [GW578748X]: 16
4. NS(=O)(=O)c1ccc(N/N=C2\C(=O)Nc3ccc(Cl)cc32)cc1 [GW280670X]: 90
5. COc1cc(C=NNc2ncnc3c2cnn3-c2ccccc2)ccc1O [GW513184X]: 75
6. NS(=O)(=O)c1ccc(N/N=C2\C(=O)Nc3ccc(C(=O)NCc4ccncc4)cc32)cc1 [GW300657X]: 12
7. Cl.O=C(Nc1ccc(Oc2ccc3[nH]c(NC(=O)c4ccccc4)nc3c2)cc1)Nc1cc(C(F)(F)F)ccc1F [GW709042A]: 100
8. COc1cc(C)c(N(C)C(=O)CN(C)C)cc1Nc1nc(Nc2cccc(F)c2C(N)=O)c2cc[nH]c2n1: 100
